assay: Progesterone solubility study in different solvent systems; format: physicochemical; conditions: oil or lipid, thermodynamic from solid; in MIGLYOL 829; room temperature, visual
QUANTITY_MEASURED: solubility (mg/mL)
Quick note: give the figure in mg/mL, leave out the unit.

Consider CC(=O)[C@H]1CC[C@H]2[C@@H]3CCC4=CC(=O)CC[C@]4(C)[C@H]3CC[C@]12C . Its measured solubility is 41.3

###

assay: Progesterone solubility study in different solvent systems; assay type: physicochemical; details: oil or lipid, thermodynamic from solid; in GLYCEROX 767; room temperature, visual
QUANTITY_MEASURED: solubility (mg/mL)
Output spec: scalar in mg/mL, unitless text.

For reference, reported solubility for CC(=O)[C@H]1CC[C@H]2[C@@H]3CCC4=CC(=O)CC[C@]4(C)[C@H]3CC[C@]12C stands at 22.2

###

assay: Progesterone solubility study in different solvent systems; type: physicochemical; conditions: oil or lipid, thermodynamic from solid; in MIGLYOL 840; room temperature, visual
QUANTITY_MEASURED: solubility (mg/mL)
Give the quantity in mg/mL, number only.

// field: solubility; key: CC(=O)[C@H]1CC[C@H]2[C@@H]3CCC4=CC(=O)CC[C@]4(C)[C@H]3CC[C@]12C [progesterone, pregn-4-ene-3,20-dione] ; value = 41.7

###

assay: Progesterone solubility study in different solvent systems; assay type: physicochemical; conditions: oil or lipid, thermodynamic from solid; in LAUROGLYCOL 90; room temperature, visual
QUANTITY_MEASURED: solubility (mg/mL)
Your answer is read as mg/mL, so omit the unit and give the number.

Briefly, solubility measured for CC(=O)[C@H]1CC[C@H]2[C@@H]3CCC4=CC(=O)CC[C@]4(C)[C@H]3CC[C@]12C : 90.2

###

experiment: Progesterone solubility study in different solvent systems; format: physicochemical; settings: oil or lipid, thermodynamic from solid; in MIGLYOL 812 + Vitamin E TPGS (91:9); room temperature, visual
QUANTITY_MEASURED: solubility (mg/mL)
Reply numerically in mg/mL, unit not repeated.

For reference, reported solubility for CC(=O)[C@H]1CC[C@H]2[C@@H]3CCC4=CC(=O)CC[C@]4(C)[C@H]3CC[C@]12C stands at 45.2

###

test: Progesterone solubility study in different solvent systems; format: physicochemical; details: oil or lipid, thermodynamic from solid; in MIGLYOL 812 + LAUROGLYCOL 90 (50:50); room temperature, visual
QUANTITY_MEASURED: solubility (mg/mL)
Answer in mg/mL, number only, no unit symbol.

Given item CC(=O)[C@H]1CC[C@H]2[C@@H]3CCC4=CC(=O)CC[C@]4(C)[C@H]3CC[C@]12C , the value recorded as its solubility is 58.9

###

experiment: Progesterone solubility study in different solvent systems; assay type: physicochemical; details: oil or lipid, thermodynamic from solid; in CAPRYOL 90; solubility determined by HPLC
QUANTITY_MEASURED: solubility (mg/mL)
Dear colleague, please return just the value in mg/mL, with no unit written.

Memo: CC(=O)[C@H]1CC[C@H]2[C@@H]3CCC4=CC(=O)CC[C@]4(C)[C@H]3CC[C@]12C [progesterone, pregn-4-ene-3,20-dione] , reported solubility: 112

###

assay: Progesterone solubility study in different solvent systems; assay type: physicochemical; conditions: organic solvent or mixture, thermodynamic from solid; in d-Limonene; room temperature, visual
QUANTITY_MEASURED: solubility
Please provide the amount together with its unit, number first.

Lab note: CC(=O)[C@H]1CC[C@H]2[C@@H]3CCC4=CC(=O)CC[C@]4(C)[C@H]3CC[C@]12C [progesterone, pregn-4-ene-3,20-dione] gave solubility of 204 mg/mL

All figures here come from patent US10098894B2.
